- STUDY SYSTEM: Peroxisome proliferator-activated receptor gamma (Homo sapiens) (UniProt P37231)
- Sequence (P37231 whole entry, looked up): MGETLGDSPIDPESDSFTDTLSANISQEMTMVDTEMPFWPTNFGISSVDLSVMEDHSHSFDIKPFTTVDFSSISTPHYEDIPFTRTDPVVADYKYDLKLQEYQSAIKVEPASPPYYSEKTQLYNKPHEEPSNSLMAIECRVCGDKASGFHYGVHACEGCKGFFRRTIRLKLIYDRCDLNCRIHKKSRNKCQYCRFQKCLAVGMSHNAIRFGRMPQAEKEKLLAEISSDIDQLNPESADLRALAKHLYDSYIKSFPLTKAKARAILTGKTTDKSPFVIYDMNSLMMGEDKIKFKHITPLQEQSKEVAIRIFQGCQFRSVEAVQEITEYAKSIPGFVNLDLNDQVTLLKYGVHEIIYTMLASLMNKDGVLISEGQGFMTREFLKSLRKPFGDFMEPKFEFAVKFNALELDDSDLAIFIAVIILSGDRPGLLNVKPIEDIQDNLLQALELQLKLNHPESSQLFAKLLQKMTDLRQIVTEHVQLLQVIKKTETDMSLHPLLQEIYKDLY
- ASSAY REMARKS: ATG_PPARg_TRANS: Attagene TRANS-FACTORIAL HepG2 Assay for human Peroxisome Proliferator-activated Receptor-gamma (PPARg) (AID 2283007)
Records with an inconclusive call do not appear. The source made the active and inactive calls. The calls were made as follows: active = hit-call score of the fitted dose curve at least 0.9, where 1 is the maximum; inconclusive = response in the unintended direction; inactive = score below 0.9.
Answer with one of the outcomes label 1 (active), label 0 (inactive)

Some solved entries appear below for comparison.
Per the records of this test, what outcome belongs to COc1cc(CCC(C)=O)ccc1O ? label 0

Per the records of this test, what outcome belongs to Cc1[nH]c(=O)c(C#N)cc1-c1ccncc1 ? label 0

***
Per the records of this test, what outcome belongs to Cc1c(OCC(F)(F)F)ccnc1CS(=O)c1nc2ccccc2[nH]1 (stereo unspecified) ? label 1

Per the records of this test, what outcome belongs to Nc1c(S(=O)(=O)O)cc(Br)c2c1C(=O)c1ccccc1C2=O ? label 1

Per the records of this test, what outcome belongs to C=C(C)[C@@H]1CC=C(C)C(=O)C1 ? label 0

Per the records of this test, what outcome belongs to COc1cc([C@@H]2c3cc4c(cc3[C@@H](O[C@@H]3O[C@@H]5CO[C@@H](C)O[C@H]5[C@H](O)[C@H]3O)[C@H]3COC(=O)[C@H]23)OCO4)cc(OC)c1O ? label 0

====

- Read-out: Secreted IgG (sIgG), gene 3500
- ASSAY REMARKS: BSK_BT_sIgG: BioMAP Diversity Plus: BT Assay for Secreted IgG (sIgG) Biomarker Activity (AID 2284226)
- REPORTED CONDITIONS: primary human B cells with PBMC
The source made the active and inactive calls. The calls were made as follows: active = hit-call score of the fitted dose curve at least 0.9, where 1 is the maximum; inactive = score below 0.9.
Answer with one of the outcomes active, inactive

Some solved entries appear below for comparison.
Per the records of this test, what outcome belongs to CC(=O)C1(C)CC2=C(CCCC2(C)C)CC1C (stereo not drawn) ? active

Per the records of this test, what outcome belongs to CN(C)C(=O)Nc1ccc(Oc2ccc(Cl)cc2)cc1 ? active

Per the records of this test, what outcome belongs to O=C1c2ccccc2C(=O)c2c(O)ccc(O)c21 ? active

***
Per the records of this test, what outcome belongs to C=C(C)C(=O)OCC(CC)(COC(=O)C(=C)C)COC(=O)C(=C)C ? active

Per the records of this test, what outcome belongs to CN(c1nccc(=O)[nH]1)C1CCN(c2nc3ccccc3n2Cc2ccc(F)cc2)CC1 ? active

Per the records of this test, what outcome belongs to CS(=O)(=O)c1ccc(C2=C(c3ccccc3)C(=O)OC2)cc1 ? inactive

Per the records of this test, what outcome belongs to CC(C=O)Cc1ccc(C(C)(C)C)cc1 (stereo not drawn) ? inactive

====

- ASSAY REMARKS: ATG_CRE_CIS: Attagene CIS-FACTORIAL HepG2 Assay for human cAMP Responsive Element (CRE) binding protein 3 (AID 2282926)
- REPORTED CONDITIONS: HepG2 CRE cis-reporter, Attagene multiplexed mRNA; actives raise or lower the signal
- Experimental: ATG_CIS is a cell-based, multiplexed-readout assay that uses HepG2, a human liver cell line, with measurements taken at 24 hours after chemical dosing in a 24-well plate.ATG_CRE_CIS is one of 52 assay component(s) measured or calculated from the ATG_CIS assay. […] This assay endpoint, ATG_CRE_CIS, was analyzed with bidirectional fitting relative to DMSO as the negative control and baseline of activity. […]
The source made the active and inactive calls. Rule for the calls: active = hit-call score of the fitted dose curve at least 0.9, where 1 is the maximum; inactive = score below 0.9.
Answer with one of the outcomes 1 = active, -1 = inactive

Some solved entries appear below for comparison.
Per the records of this test, what outcome belongs to CCCCC(CC)COC(C)=O (centres undefined) ? -1

Per the records of this test, what outcome belongs to CC(C)CCCCCCCCCCCCCCC(=O)O ? -1

Per the records of this test, what outcome belongs to O=C(Nc1ccc2c(O)c(N=Nc3ccc(N=Nc4ccc(S(=O)(=O)O)cc4)cc3)c(S(=O)(=O)O)cc2c1)c1ccccc1 ? -1

Per the records of this test, what outcome belongs to COc1ccccc1N=Nc1c(S(=O)(=O)O)cc2cc(S(=O)(=O)O)cc(NC(C)=O)c2c1O ? -1

Per the records of this test, what outcome belongs to C=C(C#N)C(=O)OCC ? -1

***
Per the records of this test, what outcome belongs to CN(C)CCOC(C)(c1ccccc1)c1ccccn1 (centres undefined) ? -1

Per the records of this test, what outcome belongs to CCCCCCOCCOCCO ? -1

Per the records of this test, what outcome belongs to CCOC(=O)COC(=O)c1cc(Oc2ccc(C(F)(F)F)cc2Cl)ccc1[N+](=O)[O-] ? -1

Per the records of this test, what outcome belongs to CCCCC1CCC(O)CC1 (centres undefined) ? -1

Attribution: PubChem BioAssay (EPA / NIEHS)
